// provenance: patent US11129782B2

# Tested on: cysteine peptide (Ac-RFAACAA-COOH)
# PROCEDURE TEXT: Direct Peptide Reactivity Assay, cysteine peptide
# CONDITIONS: 20 min; 1:10
# Method: For cysteine DPRA, an additional step was performed. The mass spectrometric analysis was performed by use of a AB SCIEX QTRAP 5500 tandem mass spectrometry (MS/MS) system (AB SCIEX, Framingham, Mass., USA) operating in triple quadrupole positive mode (ESI+) equipped with an AB Sciex Turbo Ion Spray interface. Acquisition and analysis of data were performed with Analyst software ver. 1.6.2 (Applied Biosystems).
ASSAY READOUT: % of Cysteine depletion, Avg (%)
// return numeric value only (unit: %, not printed)

MOLECULE	MEASURE UNIT	% of Cysteine depletion, Avg
OC[C@H]1O[C@@H](O[C@H]2[C@H](O)[C@@H](O)C(O)O[C@@H]2CO)[C@H](O)[C@@H](O)[C@H]1O (stereo partly drawn) [Lactose, reference compound]	%	0
CCCCCCOc1cc(Nc2ccc(N)cc2)ccc1N	%	51.2

Give its % of Cysteine depletion, Avg value. Item: CCCCC(CC)COc1cc(N)ccc1N (stereo not drawn)
31.9

Next molecule up: NC1=CC(=Nc2ccc(N)cc2)C(N)=CC1=Nc1ccc(N)cc1 [Bandrowski Base, reference compound]
44.2

----------
# PROCEDURE TEXT: Skin permeation in vertical Franz diffusion cells
# Type: in vitro ADME, porcine
# CONDITIONS: 1% W/V applied; 8 h
This section presents molecules with their documented % Parent compound Penetrated (mean) values.
Write down the numeric answer in % and omit the unit.

> print(dat)
              molecule  measure.unit  numeric.result
1  CCCCCCOc1cc(N)ccc1N             %        0.000322

If you can, please state the reported % Parent compound Penetrated (mean) value of "Nc1ccc(Nc2ccc(N)cc2)cc1" .
0.00314

Another molecule to look at: CCCCCCOC(=O)c1cc(N)ccc1N [PPD derivative 15, Hexyl-2,5-diaminobenzoate]
0.0001

Same for "CCCCCCOC(=O)c1cc(Nc2ccc(N)cc2)ccc1N"
0.00015

How about this molecule: CCCCC(CC)COc1cc(N)ccc1N (stereo not drawn)
0.00045

Check Nc1ccc(N)cc1 [PPD, para-phenylenediamine, reference compound] too.
0.162

----------
# Tested on: cysteine and lysine peptides
# PROCEDURE TEXT: Direct Peptide Reactivity Assay, mean of cysteine and lysine depletion (FIG. 12)
# CONDITIONS: mean of cysteine (1:10) and lysine (1:50); FIG. 12
Mean peptide depletion vs 50%: less than gives MET; not less than gives NOT MET.

Worked examples, 4 compounds total:
> print(dat)
                                   compound  discrete.label
1  Cc1ccc(NCc2ccc(-c3ccc(Nc4ccc(N)cc4)cc3)cc2)cc1             MET
2  NC1=CC(=Nc2ccc(N)cc2)C(N)=CC1=Nc1ccc(N)cc1 [Bandrowski Base, reference compound]             MET
3  COCc1cc(N)ccc1N [MEPPD, 2-(methoxymethyl)benzene-1,4,-diamine, reference compound]         NOT MET
4  Cc1ccc(NCc2ccc(Nc3ccc(Nc4ccc(N)cc4)cc3)cc2)cc1             MET

Now, please, on to the next compound.
State whether 50% exceeds Mean peptide depletion recorded for Nc1ccc(N)cc1 [PPD, para-phenylenediamine, reference compound] .
NOT MET
